assayedTarget: UniProtKB P10275
assayName: Degradation of androgen receptor (AR) protein in VCaP cells by ELISA
Type: cell-based
Recorded DC50, one value per entry.

Worked cases, DC50 given:
[[record]]
molecule = "COCCOc1cc(O[C@H]2CC[C@H](NC(=O)c3ccc(N4CCC(CN5CCC6(CC5)CN(c5ccc7c(c5)C(=O)N(C5CCC(=O)NC5=O)C7=O)C6)CC4)nn3)CC2)ccc1C#N (stereo partly drawn)"
value = "< 10 nM"

[[record]]
molecule = "CCOc1cc(O[C@H]2CC[C@H](NC(=O)c3ccc(N4CCC(CN5CCC6(CC5)CN(c5ccc7c(c5)C(=O)N(C5CCC(=O)NC5=O)C7=O)C6)CC4)nn3)CC2)ccc1C#N (stereo partly drawn)"
value = "< 10 nM"


Now for a further molecule.
Ask: Look up UniProtKB P10275 data: DC50 of [2H]C([2H])([2H])Oc1cc(O[C@H]2CC[C@H](NC(=O)c3ccc(N4CCC(CN5CCC6(CC5)CN(c5ccc7c(c5)C(=O)N(C5CCC(=O)NC5=O)C7=O)C6)CC4)nn3)CC2)ccc1C#N (stereo partly drawn) , then report it.
Result: < 10 nM

====

assayedTarget: UniProtKB P10275
assayName: Degradation of androgen receptor (AR) protein in VCaP cells by ELISA
Assay type: cell-based
testSettings: VCaP, AR degradation, VCaP cells, 16 h, ELISA, Table 3-1; read-out: Dmax (%)
Below is a list of entries, each paired with its recorded Dmax value.

Ask: Output reported Dmax of the compound N#Cc1ccc(O[C@H]2CC[C@H](NC(=O)c3ccc(N4CC5(CN(CC6CCN(c7cc8c(cc7F)C(=O)N(C7CCC(=O)NC7=O)C8=O)CC6)C5)C4)nn3)CC2)cc1Cl (stereo partly drawn) on UniProtKB P10275.
Result: > 80%

Ask: Given N#Cc1ccc(O[C@H]2CC[C@H](NC(=O)c3ccc(N4CCCN(C[C@@H]5[C@H]6CN(c7cc8c(cc7F)C(=O)N(C7CCC(=O)NC7=O)C8=O)C[C@@H]56)CC4)nn3)CC2)cc1Cl (stereo partly drawn) , report its Dmax on UniProtKB P10275.
Result: 60 to 80%

Ask: Please report the measured Dmax for COc1cc(O[C@H]2CC[C@H](NC(=O)c3ccc(N4CCC(CN5CCC6(CC5)CN(c5ccc7c(c5)C(=O)N(C5CCC(=O)NC5=O)C7=O)C6)CC4)nn3)CC2)ccc1C#N (stereo partly drawn) tested on UniProtKB P10275.
Result: > 80%

====

assayedTarget: UniProt P10275
Sequence (P10275 1-920): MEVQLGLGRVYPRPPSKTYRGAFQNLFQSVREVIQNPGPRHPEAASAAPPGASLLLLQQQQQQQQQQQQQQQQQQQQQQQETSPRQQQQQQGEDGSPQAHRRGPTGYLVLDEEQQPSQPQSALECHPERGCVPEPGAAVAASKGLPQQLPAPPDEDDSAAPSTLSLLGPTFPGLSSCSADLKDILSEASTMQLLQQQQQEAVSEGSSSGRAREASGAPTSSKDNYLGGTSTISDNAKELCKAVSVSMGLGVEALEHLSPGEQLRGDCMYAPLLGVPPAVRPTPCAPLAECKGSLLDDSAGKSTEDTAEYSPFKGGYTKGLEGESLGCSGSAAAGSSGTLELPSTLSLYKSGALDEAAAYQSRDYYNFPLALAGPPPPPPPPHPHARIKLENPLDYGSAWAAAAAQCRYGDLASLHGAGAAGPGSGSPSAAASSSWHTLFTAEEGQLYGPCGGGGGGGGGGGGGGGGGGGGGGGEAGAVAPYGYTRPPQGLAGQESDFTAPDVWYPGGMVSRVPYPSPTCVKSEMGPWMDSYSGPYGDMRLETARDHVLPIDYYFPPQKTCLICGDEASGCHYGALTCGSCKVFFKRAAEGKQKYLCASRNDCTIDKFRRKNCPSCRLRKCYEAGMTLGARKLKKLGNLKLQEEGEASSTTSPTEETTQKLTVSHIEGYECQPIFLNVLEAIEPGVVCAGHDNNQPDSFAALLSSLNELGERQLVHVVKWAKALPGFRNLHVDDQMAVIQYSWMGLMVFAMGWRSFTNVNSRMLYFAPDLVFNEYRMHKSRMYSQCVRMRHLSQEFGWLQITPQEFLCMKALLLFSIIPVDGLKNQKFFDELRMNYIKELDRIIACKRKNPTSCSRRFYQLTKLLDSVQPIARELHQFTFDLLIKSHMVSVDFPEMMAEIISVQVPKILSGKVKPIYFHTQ
assayName: Degradation of androgen receptor (AR) protein in VCaP cells by ELISA
Type: cell-based
testSettings: AR degradation, VCaP cells, 16 h, ELISA, Table 3-1; read-out: DC50
Each entry below carries its reported DC50.

Reference set, count: 4
[[record]]
compound = "C[C@@H]1CN(c2ccc(C(=O)N[C@H]3CC[C@H](Oc4ccc(C#N)c(Cl)c4)CC3)nn2)CCN1C[C@H]1[C@@H]2CN(c3cc4c(cc3F)C(=O)N(C3CCC(=O)NC3=O)C4=O)C[C@@H]21 (stereo partly shown)"
assayedtarget = "UniProt P10275"
value = "10 to 100 nM"

[[record]]
compound = "N#Cc1ccc(O[C@H]2CC[C@H](NC(=O)c3ccc(N4CC5(CCN(CC6CCN(c7ccc8c(c7)C(=O)N(C7CCC(=O)NC7=O)C8=O)CC6)CC5)C4)cc3)CC2)cc1Cl (stereo partly shown)"
assayedtarget = "UniProt P10275"
value = "< 10 nM"

[[record]]
compound = "C[C@@H]1CN(c2cnc(C(=O)N[C@H]3CC[C@H](Oc4ccc(C#N)c(Cl)c4)CC3)cn2)CCN1C[C@H]1[C@@H]2CN(c3cc4c(cc3F)C(=O)N(C3CCC(=O)NC3=O)C4=O)C[C@@H]21 (stereo partly shown)"
assayedtarget = "UniProt P10275"
value = "10 to 100 nM"

[[record]]
compound = "N#Cc1ccc(O[C@H]2CC[C@H](NC(=O)c3ccc(N4CCC(CN5CCC6(CC5)CN(c5cc7c(cc5F)C(=O)N(C5CCC(=O)NC5=O)C7=O)C6)CC4)cc3)CC2)cc1Cl (stereo partly shown)"
assayedtarget = "UniProt P10275"
value = "< 10 nM"


Ask: Enter measured DC50, system UniProt P10275, for the compound shown: N#Cc1ccc(O[C@H]2CC[C@H](NC(=O)c3nnc(N4CC5(CCN(C6CCN(c7ccc8c(c7)C(=O)N(C7CCC(=O)NC7=O)C8=O)CC6)CC5)C4)s3)CC2)cc1Cl (stereo partly shown)
Result: < 10 nM
